FYI, the data here is from PubChem BioAssay (NCI).

tested on: T-47D breast; assay: NCI tumour cell line growth inhibition, 48 h
// reported GI50 per item

Would you please look over these solved cases?
- COc1ccc(C(=O)/C=C/c2ccc(/C=C/c3cc(OC)c(OC)c(OC)c3)cc2)cc1: 6.19 µM
- Cc1c(C(=O)/C=C/c2csc3ccccc23)[n+](=O)c2ccccc2n1[O-]: 1.92 µM
- COc1ccc(-c2ccc(/C=N/n3c(COc4ccc(Cl)cc4Cl)n[nH]c3=S)o2)c([N+](=O)[O-])c1: 44 µM
- COc1cccc(/C=C/C(=O)c2cccc(Nc3nc(Nc4ccccc4)nc(Nc4ccccc4)n3)c2)c1: 6.15 µM

Let us move to another entry and its GI50.
Sample ClCCn1c(CCl)nc2ccc(Cl)cc21 ; GI50 observed: 1.86 µM
